test system: RPMI-8226 leukemia; test: NCI-60 one-dose screen, 48 h; settings: 10 µM unless noted
This is part of a sample that, as a whole, favours compounds with a hit. Of some 83,000 tested, about 20% had one in any assay. Calls of active or inactive are those of the source. Rule for the calls: active = growth percent below 10; inactive = the rest.
Respond only with the outcome that fits, drawn from yes (active), no (inactive)

Past entries and their recorded results:
CCN(CC)c1ccc(/C=N\NC(=O)c2cccc(Nc3ccnc(C(F)(F)F)c3)c2)c(O)c1 = yes
CCN1CCN(CC(=O)Nc2nc3ccc(NCc4ccc(Br)cc4)cc3s2)CC1 = no

Field: next compound
For "CCOC(=O)c1c(C)c2c(n1C)CSc1cc(S(=O)(=O)c3ccccc3)c(=O)[nH]c1-2" , what call appears in the results of this test?
no
